B1: Drosophila melanogaster PRL (wild-type) [D. melanogaster] / Drosophila melanogaster CNNM CBS-pair domain, GST-tagged [D. melanogaster] (parent)
chain 1: MSITMRQKDLRPAPALIEYKGMKFLITDRPSDITINHYIMELKKNNVNTVVRVCEPSYNTDELETQGITVKDLAFEDGTFPPQQVVDEWFEVLKDKYQQNPEACVAVHCVAGLGRAPVLVALALIELGLKYEAAVEMIRDKRRGAINAKQLSFLEKYKPKARLKHKNGHKNSCSVQ
chain 2: VNIISGALELRKKTVADVMTHINDAFMLSLDALLDFETVSEIMNSGYSRIPVYDGDRKNIVTLLYIKDLAFVDTDDNTPLKTLCEFYQNPVHFVFEDYTLDIMFNQFKEGTIGHIAFVHRVNNEGDGDPFYETVGLVTLEDVIEELIQAEIVDE

# Variants of: B1
# Protocol Notes: ITC
# Experimental Conditions: with Drosophila melanogaster CNNM CBS-pair domain, 16 µM CNNM titrated with 160 µM PRL
Measure Name: pKd
One number for each entry, as −log10 of the molar value.

Mutation String: chain 1 R143E
Measured: 5.12

Fill in: pKd of chain 1 C109D is ___
6.22
